Source listed as paper PMC12518634.

In this section we review reported AUC values for a set of compounds.
Test system: 783C-6
assay-protocol: High-throughput drug screen, CellTiter-Glo viability, 72 h
Assay type: cell-based, human
Set-up: scale not given here
assay-conditions: 783C-6 DSRT analysis; area under the dose-response curve
assay-endpoint: AUC

>  <compound>
CCCc1cc(C)[nH]c(=O)c1CNC(=O)c1cc(-c2ccnc(N3CCN(C)CC3)c2)cc2c1cnn2C(C)C [GSK343]

>  <tested-system>
783C-6

>  <assay-endpoint>
AUC

>  <number>
2.9

$$$$
>  <compound>
COc1cccc2c1C(=O)c1c(O)c3c(c(O)c1C2=O)C[C@@](O)(C(=O)CO)C[C@@H]3O[C@H]1C[C@H](N)[C@@H](O)[C@H](C)O1 [Epirubicin]

>  <tested-system>
783C-6

>  <assay-endpoint>
AUC

>  <number>
113.1

$$$$
>  <compound>
CCN1CCN(c2ccc(Nc3cc(N(C)C(=O)Nc4c(Cl)c(OC)cc(OC)c4Cl)ncn3)cc2)CC1 [BGJ398]

>  <tested-system>
783C-6

>  <assay-endpoint>
AUC

>  <number>
70

$$$$
>  <compound>
COc1cc(C)[nH]c(=O)c1CNC(=O)c1c(C)n([C@H](C)C2CCOCC2)c2ccccc12 [CPI-360]

>  <tested-system>
783C-6

>  <assay-endpoint>
AUC

>  <number>
36.1

$$$$
>  <compound>
CCC(CC)n1ccc2c(C(=O)NCc3c(C)cc(C)[nH]c3=O)cc(C#N)cc21 [EI1]

>  <tested-system>
783C-6

>  <assay-endpoint>
AUC

>  <number>
0.7

$$$$
>  <compound>
C=CC(=O)Nc1cc2c(Nc3ccc(F)c(Cl)c3)ncnc2cc1OCCCN1CCOCC1 [Canertinib]

>  <tested-system>
783C-6

>  <assay-endpoint>
AUC

>  <number>
7.4

$$$$
>  <compound>
CC[C@@H]1C(=O)N(C)c2cnc(Nc3ccc(C(=O)NC4CCN(C)CC4)cc3OC)nc2N1C1CCCC1 [BI 2536]

>  <tested-system>
783C-6

>  <assay-endpoint>
AUC

>  <number>
90

$$$$
